# System: Human papillomavirus type 1a E7 protein (residues 1-88)
# method: HPV1a E7 small-molecule binders, primary screen, biochemical, small-molecule microarray, residues 1-88, 635 nm (AID 1129)
# recorded.conditions: small-molecule microarray binding, fluorescence 635 nm; higher = more signal
observable: composite z-score
Please respond with just the number, no unit label.

# molecule, observable, measured.number
records = [
    ("COc1ccc([Si](C)(C)[C@H]2[C@H](CC(=O)N3CCC[C@H]3CO)O[C@@]3(C(=O)N(Cc4ccc(N5CCCCC5=O)cc4)c4ccccc43)[C@@H]2C)cc1", "composite z-score", 1.17),
    ("COc1ccc([Si](C)(C)[C@H]2[C@H](CCO)O[C@@]3(C(=O)N(Cc4ccc(NC(=O)[C@H](C)O)cc4)c4ccccc43)[C@@H]2C)cc1", "composite z-score", 1.23),
    ("COc1ccc([Si](C)(C)[C@@H]2[C@@H](CC(=O)N3CCC[C@H]3CO)O[C@]3(C(=O)N(Cc4ccc(N5CCOC5=O)cc4)c4ccccc43)[C@H]2C)cc1", "composite z-score", 0.783),
    ("O=C(NCc1ccccc1)[C@@H]1c2ccccc2C(=O)N(Cc2cc(C(F)(F)F)cc(C(F)(F)F)c2)[C@H]1c1ccc(CO)cc1", "composite z-score", 1.14),
    ("C=CC[C@@]12N=C(c3ccc(OCCCO)cc3)O[C@@H]1c1ccccc1N(CCC)C2=O", "composite z-score", 1.22),
]

Ask: Find the recorded composite z-score belonging to C=CCC(OC(C)=O)[C@@H]1[C@@H](N(Cc2ccc(-c3cccc(C(F)(F)F)c3)o2)C(=O)c2ccc(-c3ccccc3)cc2)c2cc(OCCCO)ccc2N1C(=O)c1ccc2ccccc2c1 (stereo partly specified) and report it.
Reply: -0.06

###

# method: probe aLAP1 signal on lysate-treated microarray – cell lysate, small-molecule microarray, COS7 lysate, primary screen (AID 1124);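 note: lysate comes from COS7 cells expressing LAP1 and is applied at 0.3 µg/mL; score merges spot fluorescence near 667 nm with signal-to-noise over triplicate slides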
# recorded.conditions: probe aLAP1, fluorescence, higher = more signal
observable: composite z-score
Write no unit; give the number alone.

# compound, observable, measured.number
records = [
    ("C=CCC(OC(C)=O)[C@@H]1[C@@H](N(Cc2ccc(-c3ccccc3)cc2)C(=O)c2cccc3ccccc23)c2cc(OCCCO)ccc2N1C(=O)Cc1ccc(OC)cc1 (stereo partly specified)", "composite z-score", -0.338),
    ("CC1CC/C=C\\[C@H]2OC34C=CCN(Cc5ccccc5)C(=O)[C@H]3N(CCCCCCO)C(=O)[C@@H]4C2C(=O)O1 (stereo partly specified)", "composite z-score", 0.718),
    ("COCCOC(=O)N1C(=O)[C@@]2(c3ccccc31)[C@H](C(=O)N1CCN(c3ncccn3)CC1)[C@H]1C(=O)O[C@H](c3ccccc3)[C@H](c3ccccc3)N1[C@@H]2c1ccccc1OCCO", "composite z-score", 1.37),
    ("COc1ccc(NN2C(C(O)c3ccc(I)cc3)C=CC3C(=O)N(C4CCCCC4)C(=O)C32)cc1 (stereo unspecified)", "composite z-score", 0.444),
]

Ask: Record request: composite z-score value, item CCOC(=O)C[C@H]1[C@H](OC(=O)Cc2ccc3c(c2)OCO3)[C@@H](NC(=O)Cc2ccc(OC)cc2)c2cc(OCCCO)ccc2N1C(=O)Cc1ccc(OC)cc1
Reply: 0.0995

Ask: For the compound shown here, COC(=O)[C@H](Cc1ccc(O)cc1)N[C@@H](/C=C/C1CC1)[C@H](O)Cc1ccccc1 , give the reported composite z-score.
Reply: -0.125

###

# method: growth of efflux-deficient E. coli DRC39 – strain DRC39, OD650, 24 h, E. coli filamentation inducers, primary screen (AID 1178);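 note: growth measured as culture turbidity by optical density at 650 nm; test concentration not given here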
# recorded.conditions: E. coli DRC39 acrAB, higher = more signal, called active from +8 up or from −8 down
The entries below come with measured z-score values attached.
Answer with a number only.

Examples with their reported z-score follow.
# compound, observable, measured.number
data = [
    ("CCCC[C@H]1OB(O)C[C@H]2C1=C(COc1ccccc1)C[C@H]1C(=O)C=CC(=O)[C@H]12", "z-score", 1.78),
    ("COc1ccc([Si](C)(C)[C@H]2[C@H](CC(=O)N3CCC[C@H]3CO)O[C@@]3(C(=O)N(Cc4ccc(N5CCCCC5=O)cc4)c4ccccc43)[C@@H]2C)cc1", "z-score", -0.18),
    ("CC(C)NC(=O)[C@@]1(C)c2ccccc2C(=O)N(Cc2ccccc2)[C@H]1c1ccc(CO)cc1", "z-score", 0.4),
    ("CC1CC/C=C\\[C@H]2OC34C=CCN(Cn5nnc6ccccc65)C(=O)[C@H]3N(CCCCCCO)C(=O)[C@@H]4C2C(=O)O1 (stereo partly drawn)", "z-score", 0.816),
    ("CN(C)CCCCNC(=O)[C@H]1C[C@H]2C(=O)N3CCC[C@H]3C(=O)N2[C@H]1c1cccc(OCCO)c1", "z-score", -0.0332),
]

Ask: Could you share which z-score value was measured for CCCCN1CC=CC23O[C@@H]4/C=C\CCCOC(=O)C4[C@H]2C(=O)N(C(CO)C(C)C)[C@@H]3C1=O (stereo partly drawn) ?
Reply: 0.116

Ask: Query: z-score; subject: COc1cc(C(O)C2C=CC3C(=O)N(c4ccccc4)C(=O)C3N2Nc2ccccc2F)cc(OC)c1OC (stereo not drawn)
Reply: -0.631

Ask: Field request: z-score | item: O=C(NC1CC1)[C@@H]1c2ccccc2C(=O)N(CC23CC4CC(CC(C4)C2)C3)[C@H]1c1ccc(CO)cc1
Reply: -0.0508

###

z-score by entry:
# method: hepatitis C replication reporter changes, two-sided – Huh7 cells, luciferase reporter, HCV replication inhibitor project, primary screen (AID 1109);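 note: huh7 hepatoma cells harbouring a luciferase neomycin HCV replicon reporter; luciferase luminescence as measure of HCV replicon replication; test concentration not given here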
# recorded.conditions: Huh7 HCV replicon luciferase reporter, 48 h; higher = more signal
Just the number, please, no unit attached.

# molecule, z-score
records = [
    ("CCCCC(O)C1C=CC2C(=O)N(c3ccccc3)C(=O)C2N1Nc1ccc([N+](=O)[O-])cc1 (stereo unspecified)", -0.744),
    ("CC(C)C(O)C1C=CC2C(=O)NC(=O)C2N1Nc1ccccn1 (stereo unspecified)", -0.43),
    ("CN(C)CCCNC(=O)[C@@]1(Cc2ccccc2I)c2ccccc2C(=O)N(C2CCCCC2)[C@H]1c1ccc(CO)cc1", -3.49),
    ("Cc1ccc(S[C@]2(C(=O)NCC(F)(F)F)CC(=O)N(Cc3ccccc3C(F)(F)F)[C@@H]2c2ccc(CO)cc2)cc1", 0.169),
    ("COc1ccc(C(O)C2C=CC3C(=O)N(C)C(=O)C3N2N(c2ccccc2)c2ccccc2)cc1 (stereo unspecified)", -0.336),
]

Ask: Any idea what its z-score is? The molecule is CC(C)=CCCC(C)=CC(O)C1C=CC2C(=O)NC(=O)C2N1Nc1ccccn1 (stereo unspecified)
Reply: -0.156

Ask: Recorded z-score of CC(C)(C)N1CC=CC23O[C@@H]4C=CCOC(=O)[C@@H]4[C@H]2C(=O)N(CCO)[C@@H]3C1=O (stereo partly specified) , please.
Reply: -0.471

Ask: I would be grateful if you could share the reported z-score for COC(=O)[C@@]1(Cc2ccc(OC)cc2)[C@H]2c3cc(C(=O)N4CCCC4)n(CCn4cc([N+](=O)[O-])nc4C)c3C[C@H]2CN1C(=O)c1ccccc1 .
Reply: -0.432

Ask: Report z-score for CCCC#C[Si](O[C@H](CC)c1cn(Cc2ccccc2)nn1)(C(C)C)C(C)C please.
Reply: -0.283

Ask: Any idea what z-score was measured for O=C1O[C@@H](c2ccccc2)[C@@H](c2ccccc2)N2[C@@H](c3ccc(OCCO)cc3)[C@]3(C(=O)Nc4ccc(C#CC5(O)CCCCCC5)cc43)[C@@H](C(=O)Nc3nc4ccccc4s3)[C@H]12 ?
Reply: -2.29

###

# Lookup of reported composite z-score keyed by entry
# method: small molecules captured by biotinylated probe aFGF10 – biochemical, small-molecule microarray, fluorescence 635/667, stem cell growth factor project, primary screen (AID 1071);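 note: score merges 667 nm spot intensity and signal to noise from triplicate slides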
# recorded.conditions: higher = more signal

# molecule, observable, result
records = [
    ("COCCCNC(=O)[C@@H]1c2ccccc2C(=O)N(Cc2ccc(OC(F)(F)F)cc2)[C@H]1c1ccc(CO)cc1", "composite z-score", 0.235),
]

Ask: So what's the measured composite z-score for this one? CC(C)=C1C(=O)C(c2ccccc2)=C2CN3C(=O)N(CCc4ccccc4)C(=O)[C@]3(C)[C@H]21
Reply: 0.265

Ask: What measured composite z-score goes with C=CCN1C(=O)[C@]2(O[C@H](CCn3cc([C@H](O)c4ccccc4)nn3)[C@@H]([Si](C)(C)c3ccc(OC)cc3)[C@@H]2C)c2cc(NC(=O)c3ccc(OC)cc3)ccc21 ?
Reply: 0.141

Ask: Record request: composite z-score value, item CC(C)C(CO)N1C(=O)[C@@H]2C3C(=O)OCCC/C=C\[C@H]3OC23C=CCN(Cc2ccccc2)C(=O)[C@@H]13 (stereo partly drawn)
Reply: 0.648
